Tested on: Streptococcus pyogenes
protocol-description: In vitro antibacterial activity was tested for Streptococcus pyogenes C203
Format: functional
reported-property: MIC (µg/mL)
Enter your answer as a number in µg/mL; do not include the unit.

CCNCC1CCCN(c2c(F)cc3c(=O)c(C(=O)O)cn(C4CC4)c3c2OCC)C1 (stereo not given)
0.1
COc1c(N2CCCC(CN)C2)c(F)cc2c(=O)c(C(=O)O)cn(C3CC3)c12 (stereo not given)
0.006

Here is another compound to look at.
input: Quick one: MIC for COc1c(N2CC(C)NC(C)C2)c(F)c(N)c2c(=O)c(C(=O)O)cn(C3CC3)c12 (stereo not given) ?
output: 0.1
